# protocolDescription: Bioavailability as maximal plasma concentration in rats after 10 mg/kg oral dose
# Format: ADME, organism-based
# Design: dose 10 mg/kg, route oral
# runParameters: rat
Overview of reported log10 of Cmax across a group of compounds:
Quick note: numbers are log10 of Cmax, with nM as the unit.

// log10 of Cmax lookup, key: `C/C(=N/O)c1cccc(CN2C(=O)N(Cc3cccc(/C(C)=N/O)c3)[C@H](Cc3ccccc3)[C@H](O)[C@@H](O)[C@H]2Cc2ccccc2)c1`
1.78

Now the same for `O=C1N(Cc2cccc(/C=N\O)c2)[C@H](Cc2ccccc2)[C@H](O)[C@@H](O)[C@@H](Cc2ccccc2)N1Cc1cccc(/C=N/O)c1`
2.48

Now the same for `O=C1N(Cc2cccc(CO)c2)[C@H](Cc2ccccc2)[C@H](O)[C@@H](O)[C@@H](Cc2ccccc2)N1Cc1cccc(-c2cc[nH]n2)c1`
2.04

Now the same for `O=C1N(Cc2cccc(-c3cn[nH]c3)c2)[C@H](Cc2ccccc2)[C@H](O)[C@@H](O)[C@@H](Cc2ccccc2)N1Cc1cccc(-c2cn[nH]c2)c1`
1.88

---
// log10 of Cmax lookup, key: Nc1cccc(CN2C(=O)N(Cc3cccc(N)c3)[C@H](Cc3ccccc3)[C@H](O)[C@@H](O)[C@H]2Cc2ccccc2)c1 [MOZENAVIR]
3.35

* * *

# Test system: MT2
# protocolDescription: Cytotoxicity was determined by 50% reduction in the number of viable MT2 cells with HIV-1RF
# Format: functional
# runParameters: Homo sapiens, read-out: TC50 (the source's name)
recordedEndpoint: CC50 (µM)
Please respond with the number in µM and leave the unit unwritten.

// CC50 lookup, key: `O=C1N(Cc2cccc(-c3nc[nH]n3)c2)[C@H](Cc2ccccc2)[C@H](O)[C@@H](O)[C@@H](Cc2ccccc2)N1Cc1cccc(-c2nc[nH]n2)c1`
53

Now the same for `CC/C(=N/O)c1cccc(CN2C(=O)N(Cc3cccc(/C(CC)=N/O)c3)[C@H](Cc3ccccc3)[C@H](O)[C@@H](O)[C@H]2Cc2ccccc2)c1`
5

Moving on to another compound below.
// CC50 lookup, key: `O=C1N(Cc2cccc(-c3c[nH]cn3)c2)[C@H](Cc2ccccc2)[C@H](O)[C@@H](O)[C@@H](Cc2ccccc2)N1Cc1cccc(-c2c[nH]cn2)c1`
8.8

* * *

Overview of reported Ki across a group of compounds:
# tgt: Human immunodeficiency virus type 1 protease (Human immunodeficiency virus 1, UniProt Q72874)
Please respond with the number in pM and leave the unit unwritten.

// Ki lookup, key: `O=C1N(Cc2cccc(-c3cc[nH]n3)c2)[C@H](Cc2ccccc2)[C@H](O)[C@@H](O)[C@@H](Cc2ccccc2)N1Cc1cccc(-c2cc[nH]n2)c1`
27

Now the same for `O=C1N(Cc2cccc(C(=O)C(F)(F)F)c2)[C@H](Cc2ccccc2)[C@H](O)[C@@H](O)[C@@H](Cc2ccccc2)N1Cc1cccc(C(=O)C(F)(F)F)c1`
37

Moving on to another compound below.
// Ki lookup, key: `C/C(=N/O)c1cccc(CN2C(=O)N(Cc3cccc(/C(C)=N/O)c3)[C@H](Cc3ccccc3)[C@H](O)[C@@H](O)[C@H]2Cc2ccccc2)c1`
18
